# method_description: Saturation solubility of OA in different oils and surfactants
# Type: physicochemical
# condition_context: oil or lipid, thermodynamic from solid; in Etyloleate, 24 h at 25 °C
measurement_kind: solubility at 24 h (µg/mL)

| structure | measurement_kind | test_value |
| --- | --- | --- |
| CC1(C)CC[C@]2(C(=O)O)CC[C@]3(C)C(=CC[C@@H]4[C@@]5(C)CC[C@H](O)C(C)(C)[C@@H]5CC[C@]43C)[C@@H]2C1 | solubility at 24 h | 2130 |

---

# method_description: Parallel artificial membrane permeability assay (PAMPA)
# Assay type: in vitro ADME
# condition_context: room temperature, read-out: permeability coefficient (Pe)
# Protocol: The test was carried out in a 96-well, MultiScreen-IP PAMPA (Millipore corporation) filter plate in order to evaluate the ability of compounds to diffuse from a donor compartment into an acceptor compartment. […] Then, the samples were withdrawn, properly diluted with methanol, centrifuged for 10 min at 14,000× g, and the OA concentration determined by HPLC-DAD. […] Ceq was calculated according to: Ceq=CDt × VD+CAt × VA/VA+VD
measurement_kind: Papp at 1 h (×10⁻⁶ cm/s)

| structure | measurement_kind | unit_text | test_value |
| --- | --- | --- | --- |
| CC1(C)CC[C@]2(C(=O)O)CC[C@]3(C)C(=CC[C@@H]4[C@@]5(C)CC[C@H](O)C(C)(C)[C@@H]5CC[C@]43C)[C@@H]2C1 | Papp at 1 h | ×10⁻⁶ cm/s | 0.369 |

---

# method_description: Saturation solubility of OA in different oils and surfactants
# Format: physicochemical
# condition_context: oil or lipid, thermodynamic from solid; in Captex 300, 24 h at 25 °C
measurement_kind: solubility at 24 h

| structure | test_value |
| --- | --- |
| CC1(C)CC[C@]2(C(=O)O)CC[C@]3(C)C(=CC[C@@H]4[C@@]5(C)CC[C@H](O)C(C)(C)[C@@H]5CC[C@]43C)[C@@H]2C1 | 3740 µg/mL |

---

# method_description: Saturation solubility of OA in different oils and surfactants
# Assay type: physicochemical
# condition_context: oil or lipid, thermodynamic from solid; in Capmul PG-8/NF, 24 h at 25 °C
# Procedure: The solubility of OA in different vehicles was defined by adding an excess of OA to 2 mL of each of the tested solvents/tensides: Water, Capmul PG-8/NF, Capmul PG-12/NF, Capryol 90, Captex 300, Captex 355, Cremophor EL, Etyl Oleate, Isoprpyl myristate, Labrafac lipophile, Labrafilm 1944, Labrafilm 2125, Labrasol, Labrasol ALF, Lauroglycol 90, Nigella Oil, PEG400, Soybean Oil, Sunflower Oil, Transcutol, Triacetine, Tween 20 and Tween 80. […]
measurement_kind: solubility at 24 h (mg/mL)

| structure | test_value |
| --- | --- |
| CC1(C)CC[C@]2(C(=O)O)CC[C@]3(C)C(=CC[C@@H]4[C@@]5(C)CC[C@H](O)C(C)(C)[C@@H]5CC[C@]43C)[C@@H]2C1 | 19.7 |

---

# method_description: Saturation solubility of OA in different oils and surfactants
# Type: physicochemical
# condition_context: oil or lipid, thermodynamic from solid; in Isopropil myristate, 24 h at 25 °C
measurement_kind: solubility at 24 h

| structure | test_value |
| --- | --- |
| CC1(C)CC[C@]2(C(=O)O)CC[C@]3(C)C(=CC[C@@H]4[C@@]5(C)CC[C@H](O)C(C)(C)[C@@H]5CC[C@]43C)[C@@H]2C1 | 9440 µg/mL |

Values compiled from paper PMC9610975.
